Target: T1, CD70 (UniProt P32970 39-193, limits assumed)
T1 construct: also called CD70 (100 nM)
T1 sequence (looked up): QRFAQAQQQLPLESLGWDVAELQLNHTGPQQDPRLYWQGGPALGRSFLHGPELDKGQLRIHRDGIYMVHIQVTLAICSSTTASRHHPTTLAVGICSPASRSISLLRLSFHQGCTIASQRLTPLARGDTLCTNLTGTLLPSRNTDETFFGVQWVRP
Experiment: Octet (BLI); hybridoma mAb, CD70 at 100 nM
Measured Endpoint: pKd
Please express pKd as -log10 of the molar concentration.

>>> result_value("13G6 (antibody, V domains shown, IgG in hybridoma supernatant; also called 13G6E8) VH: QVQLVESGGGVVQPGKSLRLSCAASGFTFSNYGIHWVRQAPGKGLEWVAVIWYDGSYKYYADSVKGRFTISRDNSKNTLYLQMNSLRAEDTALYYCARDTVDTYGSFDYWGQGTLVTVSS VL: DIQLTQSPSFLSASVGDRVTITGRASQGISSYLAWYQQKPGKAPNLLIYAASTLQSGVPSRFSGSGSGTEFTLTISSLQPEDFATYYCQQHNRYPITFGQGTRLEIK")
11.47

# ---- query binder ----
Can you share its pKd? I mean this binder: 1E3 (1E3D9) (antibody, V domains shown, IgG in hybridoma supernatant) VH: QLQLQESGPGLVKPSETLSLTCTVSGASITSTSYYWNWIRQPPGKGLEWIGRISYSGSTYYNPSLKSRVTISVDTSKNQFSLKLSSVTATDTAVYYCARQIRYNWNPDTFDIWGQGTMVTVSS VL: EIVMTQSPATLSVSPGERATLSCRASQSLNSNLAWYQQKPAQAPRLLIYGASTRATGIPARFSGSGSGTEFTLTISSLQSEDFAVYYCQQYDNWPLTFGGGTKVEIK 9.59
